Readings of Cell viability (% of Con. 10 μM) HS746T for the listed molecules
- Test system: HS746T cancer cells
- experiment: Anticancer activity, cell viability by CCK-8, HS746T
- Type: cell-based
- measurement-context: 72 hours

These solved cases illustrate the format of a correct answer.
smiles-notation	assay-target	experimental-value
CC(C)Oc1cc(F)cc(-c2n[nH]c3ccc(Nc4ncc(Cl)c(Nc5ccccc5P(C)(C)=O)n4)cc23)c1	HS746T cancer cells	10 % of Con.
CP(C)(=O)c1ccccc1Nc1nc(Nc2ccc3c(c2)CN(C(=O)C(F)(F)F)C3)ncc1Cl	HS746T cancer cells	9 % of Con.
CP(C)(=O)c1ccccc1Nc1nc(Nc2ccc3[nH]nc(C4=CCNCC4)c3c2)ncc1Cl	HS746T cancer cells	5.8 % of Con.
CP(C)(=O)c1ccccc1Nc1nc(Nc2cnc3[nH]ncc3c2)ncc1Cl	HS746T cancer cells	18 % of Con.

Give Cell viability (% of Con. 10 μM) HS746T only, for "CP(C)(=O)c1ccccc1Nc1nc(Nc2ccc3ncccc3c2)ncc1Cl" , using HS746T cancer cells data. 16 % of Con.

Provide Cell viability (% of Con. 10 μM) HS746T, recorded with HS746T cancer cells, of "CP(C)(=O)c1ccccc1Nc1nc(Nc2ccc3[nH]nc(-c4ccc(Cl)c(C(F)(F)F)c4)c3c2)ncc1Cl" 7 % of Con.

* * *

- assay-target: human recombinant LRRK2 protein (Homo sapiens, UniProt Q5S007)
- Sequence (Q5S007 whole entry): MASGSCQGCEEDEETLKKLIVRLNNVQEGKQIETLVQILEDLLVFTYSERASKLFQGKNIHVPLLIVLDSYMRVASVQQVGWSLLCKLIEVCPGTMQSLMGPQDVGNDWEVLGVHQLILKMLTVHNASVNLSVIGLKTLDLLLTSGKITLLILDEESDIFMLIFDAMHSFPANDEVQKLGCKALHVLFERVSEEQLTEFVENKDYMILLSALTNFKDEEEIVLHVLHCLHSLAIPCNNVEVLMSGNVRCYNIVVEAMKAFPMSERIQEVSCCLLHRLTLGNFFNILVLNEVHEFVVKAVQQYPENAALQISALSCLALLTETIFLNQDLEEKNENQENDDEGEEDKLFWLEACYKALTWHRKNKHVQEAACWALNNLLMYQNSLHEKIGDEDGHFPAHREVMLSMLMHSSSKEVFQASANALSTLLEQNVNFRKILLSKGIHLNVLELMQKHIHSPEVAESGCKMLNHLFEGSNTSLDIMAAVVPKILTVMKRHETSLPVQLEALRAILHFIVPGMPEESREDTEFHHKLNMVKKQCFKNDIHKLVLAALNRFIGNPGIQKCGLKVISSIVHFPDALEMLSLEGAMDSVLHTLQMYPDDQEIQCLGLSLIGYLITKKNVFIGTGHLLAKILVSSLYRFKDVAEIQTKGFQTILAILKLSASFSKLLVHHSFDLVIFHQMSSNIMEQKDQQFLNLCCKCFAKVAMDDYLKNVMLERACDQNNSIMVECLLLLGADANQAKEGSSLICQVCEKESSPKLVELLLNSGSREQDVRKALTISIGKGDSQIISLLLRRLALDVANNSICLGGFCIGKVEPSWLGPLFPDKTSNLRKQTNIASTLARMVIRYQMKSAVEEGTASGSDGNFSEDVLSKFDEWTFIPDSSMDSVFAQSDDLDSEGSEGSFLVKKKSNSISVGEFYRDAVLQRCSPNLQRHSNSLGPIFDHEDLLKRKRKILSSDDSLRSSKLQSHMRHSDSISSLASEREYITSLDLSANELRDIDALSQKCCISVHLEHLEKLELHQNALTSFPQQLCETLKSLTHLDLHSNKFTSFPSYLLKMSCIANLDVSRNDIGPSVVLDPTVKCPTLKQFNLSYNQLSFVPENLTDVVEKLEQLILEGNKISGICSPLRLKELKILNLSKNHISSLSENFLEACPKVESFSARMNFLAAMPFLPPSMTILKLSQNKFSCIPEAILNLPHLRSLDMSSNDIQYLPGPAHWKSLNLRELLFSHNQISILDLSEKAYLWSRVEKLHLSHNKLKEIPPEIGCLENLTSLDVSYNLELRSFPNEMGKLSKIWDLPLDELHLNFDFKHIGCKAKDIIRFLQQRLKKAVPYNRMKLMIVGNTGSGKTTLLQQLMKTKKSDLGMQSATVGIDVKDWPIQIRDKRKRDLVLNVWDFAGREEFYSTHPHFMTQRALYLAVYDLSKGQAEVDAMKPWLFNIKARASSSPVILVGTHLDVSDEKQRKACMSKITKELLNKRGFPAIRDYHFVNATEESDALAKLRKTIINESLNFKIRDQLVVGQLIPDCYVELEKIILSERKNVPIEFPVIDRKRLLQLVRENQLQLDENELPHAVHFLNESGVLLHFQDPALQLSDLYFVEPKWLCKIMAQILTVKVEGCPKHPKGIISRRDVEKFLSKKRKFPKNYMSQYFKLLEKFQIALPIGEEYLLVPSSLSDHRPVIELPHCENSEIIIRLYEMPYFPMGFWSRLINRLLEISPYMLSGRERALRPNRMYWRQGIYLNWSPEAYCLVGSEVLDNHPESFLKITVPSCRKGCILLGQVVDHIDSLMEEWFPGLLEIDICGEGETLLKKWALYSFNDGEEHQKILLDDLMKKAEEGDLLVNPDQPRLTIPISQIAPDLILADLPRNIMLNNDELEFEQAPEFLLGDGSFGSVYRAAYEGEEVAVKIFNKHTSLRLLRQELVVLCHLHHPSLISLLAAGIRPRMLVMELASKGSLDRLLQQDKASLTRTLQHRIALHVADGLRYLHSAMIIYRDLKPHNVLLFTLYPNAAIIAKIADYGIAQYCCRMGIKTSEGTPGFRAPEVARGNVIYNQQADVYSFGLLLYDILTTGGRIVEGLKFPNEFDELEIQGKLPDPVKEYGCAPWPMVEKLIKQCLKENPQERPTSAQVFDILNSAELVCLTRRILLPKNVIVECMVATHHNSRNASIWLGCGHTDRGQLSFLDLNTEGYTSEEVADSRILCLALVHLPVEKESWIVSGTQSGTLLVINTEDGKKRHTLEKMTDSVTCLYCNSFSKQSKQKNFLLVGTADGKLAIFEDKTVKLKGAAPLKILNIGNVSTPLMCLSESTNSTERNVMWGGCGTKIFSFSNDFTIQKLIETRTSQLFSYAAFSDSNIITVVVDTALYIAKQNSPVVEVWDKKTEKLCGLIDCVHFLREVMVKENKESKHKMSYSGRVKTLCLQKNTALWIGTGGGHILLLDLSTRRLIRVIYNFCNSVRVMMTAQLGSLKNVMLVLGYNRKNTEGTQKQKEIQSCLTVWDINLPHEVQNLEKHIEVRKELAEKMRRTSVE
- experiment: LRRK2 kinase activity assay (Eurofins, gamma-33P-ATP, filtermat scintillation counting)
- measurement-context: human recombinant LRRK2, 40 minutes at room temperature
pIC50: −log10 of the molar value.
Items are presented alongside their recorded pIC50.

The following compounds have reported results that may help.
smiles-notation	assay-target	experimental-value
CP(C)(=O)c1ccccc1Nc1nc(Nc2ccc3c(c2)CCNC3)ncc1Cl	human recombinant LRRK2 protein (Homo sapiens, UniProt Q5S007)	8.00 to 9.00
CC1(C)CNCc2cc(Nc3ncc(Cl)c(Nc4ccccc4P(C)(C)=O)n3)ccc21	human recombinant LRRK2 protein (Homo sapiens, UniProt Q5S007)	8.00 to 9.00

Return value of pIC50 for input "CC(C)S(=O)(=O)c1ccccc1Nc1nc(Nc2cc(F)c(Br)c(F)c2)ncc1Cl" , no commentary. 7.00 to 8.00

Using known records, supply pIC50 for "CP(C)(=O)c1ccccc1Nc1nc(Nc2ccc3[nH]nc(-c4cccc([N+](=O)[O-])c4)c3c2)ncc1Cl" 8.00 to 9.00

Please give measured pIC50 of the following entry: "CC1(C)CCC(C)(C)c2cc(Nc3ncc(Cl)c(Nc4ccccc4P(C)(C)=O)n3)ccc21" 6.00 to 7.00

Input "CC(C)(C)OC(=O)N1CCN(c2ccc(-c3n[nH]c4ccc(Nc5ncc(Cl)c(Nc6ccccc6P(C)(C)=O)n5)cc34)cc2)CC1" , output reported pIC50. 7.00 to 8.00

Name the recorded pIC50 of the item "CP(C)(=O)c1ccccc1Nc1nc(Nc2cnc3[nH]ncc3c2)ncc1Cl" in your answer. 7.00 to 8.00

* * *

- Tested on: HS746T cancer cells
- experiment: Anticancer activity, cell viability by CCK-8, HS746T
- Assay type: cell-based
- measurement-context: 72 hours
Collected Cell viability (% of Con. 10 μM) HS746T values appear next to each entry.

Example entries begin here.
compound	assay-target	experimental-value
CP(C)(=O)c1ccccc1Nc1nc(Nc2ccc3ncsc3c2)ncc1Cl [compound 11]	HS746T cancer cells	27 % of Con.
CC1(C)CNCc2cc(Nc3ncc(Cl)c(Nc4ccccc4P(C)(C)=O)n3)ccc21 [compound 52]	HS746T cancer cells	1 % of Con.
CP(C)(=O)c1ccccc1Nc1nc(Nc2ccc3c(c2)CCN(C(=O)C(F)(F)F)C3)ncc1Cl [compound 48]	HS746T cancer cells	9 % of Con.
CC1(C)CCC(C)(C)c2cc(Nc3ncc(Cl)c(Nc4ccccc4P(C)(C)=O)n3)ccc21 [compound 7]	HS746T cancer cells	103 % of Con.

Read the entry Cn1ncc2cc(Nc3ncc(Cl)c(Nc4ccccc4P(C)(C)=O)n3)cnc21 [compound 78] and write its reported Cell viability (% of Con. 10 μM) HS746T. 17 % of Con.

Report measured Cell viability (% of Con. 10 μM) HS746T; entry is CC1(C)c2cc(Nc3ncc(Cl)c(Nc4ccccc4P(C)(C)=O)n3)ccc2CCN1C(=O)C(F)(F)F [compound 42] 30 % of Con.

Note Cell viability (% of Con. 10 μM) HS746T for the compound shown: CP(C)(=O)c1ccccc1Nc1nc(NCc2ccc(F)cc2)ncc1Cl [compound 12] 97 % of Con.

Indicate its recorded Cell viability (% of Con. 10 μM) HS746T; the compound in question is CP(C)(=O)c1ccccc1Nc1nc(Nc2ccc3[nH]nc(-c4ccc(F)c(Cl)c4)c3c2)ncc1Cl [compound 107] 11 % of Con.

Entry CP(C)(=O)c1ccccc1Nc1nc(Nc2ccc3[nH]nc(-c4cn[nH]c4)c3c2)ncc1Cl [compound 84] needs its Cell viability (% of Con. 10 μM) HS746T filled in; supply it. 11 % of Con.
